These data points were gathered from ChEMBL document CHEMBL1671820.

Assay: Selectivity index, ratio of IC50 for african green monkey Vero cells to IC50 for chloroquine-resistant ring stage Plasmodium falciparum W2
Format: toxicity, cell-based
Settings: read-out: Ratio IC50
readout: selectivity ratio

[[record]]
compound = "CCN(CC)CCCNc1c2ccc(Cl)cc2[n+](C)c2c1[nH]c1ccccc12.[Cl-]"
result = 60

[[record]]
compound = "C[n+]1c2ccccc2c(NC2CCN(Cc3ccccc3)CC2)c2[nH]c3ccccc3c21.[Cl-]"
result = 21

[[record]]
compound = "C[n+]1c2ccccc2c(NCCCN2CCCCC2)c2[nH]c3ccccc3c21.[Cl-]"
result = 56

[[record]]
compound = "CCN(CC)CCCCNc1c2ccccc2[n+](C)c2c1[nH]c1ccccc12.[Cl-]"
result = 358

[[record]]
compound = "CC(C)CN1CCC(Nc2c3ccccc3[n+](C)c3c2[nH]c2ccccc23)CC1.[Cl-]"
result = 70


selectivity ratio reading for C[n+]1c2ccccc2cc2[n-]c3ccccc3c21.Cl [CRYPTOLEPINE HYDROCHLORIDE] : 1.4

selectivity ratio reading for CN(C)CCCNc1c2ccccc2[n+](C)c2c1[nH]c1ccccc12.[Cl-] : 109

selectivity ratio reading for CN(C)CC(C)(C)CNc1c2ccccc2[n+](C)c2c1[nH]c1ccccc12.[Cl-] : 18

selectivity ratio reading for C[n+]1c2ccccc2c(NCCN)c2[nH]c3ccccc3c21.[Cl-] : 678

====

Experiment: Inhibition of Plasmodium falciparum falcipain 2
readout: IC50

IC50 reading for CN(C)CC(C)(C)CNc1c2ccccc2[n+](C)c2c1[nH]c1ccccc12.[Cl-] : 33.5 µM

IC50 reading for C[n+]1c2ccccc2cc2[n-]c3ccccc3c21.Cl [CRYPTOLEPINE HYDROCHLORIDE] : 38 µM

IC50 reading for C[n+]1c2ccccc2c(Nc2ccccc2)c2[nH]c3ccccc3c21.[Cl-] : 14 µM

IC50 reading for C[n+]1c2ccccc2c(NCCN)c2[nH]c3ccccc3c21.[Cl-] : 6.3 µM

IC50 reading for CN(C)CCCNc1c2ccccc2[n+](C)c2c1[nH]c1ccccc12.[Cl-] : 34 µM

IC50 reading for C[n+]1c2cc(Cl)ccc2c(NC2CCNCC2)c2[nH]c3cc(Cl)ccc3c21.[Cl-] : 4.8 µM

IC50 reading for CC(CN(C)C)Nc1c2ccccc2[n+](C)c2c1[nH]c1ccccc12.[Cl-] (configuration not stated) : 8.3 µM

IC50 reading for C[n+]1c2ccccc2c(Nc2ccc(N3CCCCC3)cc2)c2[nH]c3ccccc3c21.[Cl-] : 8.2 µM

IC50 reading for CCN(CC)CCCC(C)Nc1c2ccccc2[n+](C)c2c1[nH]c1ccccc12.[Cl-] (configuration not stated) : 11.6 µM

====

Assay: Inhibition of Plasmodium falciparum falcipain 3
readout: IC50 (µM)
Write it as a number; the unit µM goes unstated.

[[record]]
compound = "CC(CN(C)C)Nc1c2ccccc2[n+](C)c2c1[nH]c1ccccc12.[Cl-] (stereo unspecified)"
number = 14

[[record]]
compound = "CCN(CC)c1c2ccccc2[n+](C)c2c1[nH]c1ccccc12.[Cl-]"
number = 46.3

[[record]]
compound = "C[n+]1c2ccccc2c(NCCCN)c2[nH]c3ccccc3c21.[Cl-]"
number = 14

[[record]]
compound = "CN(C)CC(C)(C)CNc1c2ccccc2[n+](C)c2c1[nH]c1ccccc12.[Cl-]"
number = 26

[[record]]
compound = "C[n+]1c2ccccc2c(NC2CCNCC2)c2[nH]c3ccccc3c21.[Cl-]"
number = 7.9


IC50 reading for CCN(CC)CCCC(C)Nc1c2ccccc2[n+](C)c2c1[nH]c1ccccc12.[Cl-] (stereo unspecified) : 7

IC50 reading for C[n+]1c2ccccc2c(NC2CCN(Cc3ccccc3O)CC2)c2[nH]c3ccccc3c21.[Cl-] : 43

IC50 reading for CC(C)CN1CCC(Nc2c3ccccc3[n+](C)c3c2[nH]c2ccccc23)CC1.[Cl-] : 16

====

Reported Ka by item:
Test system: Nucleic Acid
Assay: Binding affinity to s(GATCCTAGGATC)2-DNA by fluorescence spectroscopy
Assay type: nucleic-acid assay
Write it as a number; the unit ×10⁶ /M goes unstated.

Recorded Ka, per entry:
[[record]]
compoundsmiles = "C[n+]1c2cc(Cl)ccc2c(NC2CCNCC2)c2[nH]c3cc(Cl)ccc3c21.[Cl-]"
measuredtarget = "Nucleic Acid"
readout = "Ka"
number = 1.6

[[record]]
compoundsmiles = "CN(C)CCCNc1c2ccccc2[n+](C)c2c1[nH]c1ccccc12.[Cl-]"
measuredtarget = "Nucleic Acid"
readout = "Ka"
number = 3

[[record]]
compoundsmiles = "C[n+]1c2ccccc2c(Nc2ccc(N3CCCCC3)cc2)c2[nH]c3ccccc3c21.[Cl-]"
measuredtarget = "Nucleic Acid"
readout = "Ka"
number = 3.4

[[record]]
compoundsmiles = "CCN(CC)CCNc1c2ccccc2[n+](C)c2c1[nH]c1ccccc12.[Cl-]"
measuredtarget = "Nucleic Acid"
readout = "Ka"
number = 1.14


Ka reading for CCN(CC)CCCNc1c2ccccc2[n+](C)c2c1[nH]c1ccccc12.[Cl-] : 9.1

====

Test system: Heme
Test: Binding affinity to heme by UV-visible titration
Reported Ka by item:
Write it as a number; the unit ×10⁶ /M goes unstated.

[[record]]
molecule = "C[n+]1c2ccccc2c(NC2CCN(Cc3ccccc3)CC2)c2[nH]c3ccccc3c21.[Cl-]"
measuredtarget = "Heme"
number = 0.125


Ka reading for CCN(CC)CCNc1c2ccccc2[n+](C)c2c1[nH]c1ccccc12.[Cl-] : 0.41

Ka reading for C[n+]1c2ccccc2c(NCCCCN)c2[nH]c3ccccc3c21.[Cl-] : 0.147

Ka reading for CCN(CC)CCCC(C)Nc1c2ccccc2[n+](C)c2c1[nH]c1ccccc12.[Cl-] (configuration not stated) : 0.062

====

Reported selectivity ratio by item:
Test: Selectivity index, ratio of IC50 for african green monkey Vero cells to IC50 for chloroquine-resistant ring stage Plasmodium falciparum W2
Type: toxicity, cell-based
Settings: read-out: Ratio IC50
Please reply with the value in numeric form only.

Recorded selectivity ratio, per entry:
[[record]]
molecule = "CCN(CC)CCNc1c2ccccc2[n+](C)c2c1[nH]c1ccccc12.[Cl-]"
readout = "selectivity ratio"
number = 34

[[record]]
molecule = "CN(C)CCNc1c2ccccc2[n+](C)c2c1[nH]c1ccccc12.[Cl-]"
readout = "selectivity ratio"
number = 111

[[record]]
molecule = "CC(C)NCCCNc1c2ccccc2[n+](C)c2c1[nH]c1ccccc12.[Cl-]"
readout = "selectivity ratio"
number = 125

[[record]]
molecule = "C[n+]1c2cc(Cl)ccc2c(NC2CCNCC2)c2[nH]c3ccccc3c21.[Cl-]"
readout = "selectivity ratio"
number = 98


selectivity ratio reading for CC(CN(C)C)Nc1c2ccccc2[n+](C)c2c1[nH]c1ccccc12.[Cl-] (stereo not given) : 23

====

Experiment: Selectivity index, ratio of IC50 for african green monkey Vero cells to IC50 for chloroquine-resistant ring stage Plasmodium falciparum W2
Type: toxicity, cell-based
Conditions: read-out: Ratio IC50
readout: selectivity ratio
Please reply with the value in numeric form only.

[[record]]
molecule = "CCN(CC)CCCNc1c2ccccc2[n+](C)c2c1[nH]c1ccccc12.[Cl-]"
readout = "selectivity ratio"
number = 78

[[record]]
molecule = "C[n+]1c2ccccc2c(Nc2cccnc2)c2[nH]c3ccccc3c21.[Cl-]"
readout = "selectivity ratio"
number = 14

[[record]]
molecule = "CCN(CC)CCCC(C)Nc1c2ccccc2[n+](C)c2c1[nH]c1ccccc12.[Cl-] (configuration not stated)"
readout = "selectivity ratio"
number = 103

[[record]]
molecule = "C[n+]1c2ccccc2c(NCCCN)c2[nH]c3ccccc3c21.[Cl-]"
readout = "selectivity ratio"
number = 371

[[record]]
molecule = "C[n+]1c2ccccc2c(NC2CCNCC2)c2[nH]c3ccccc3c21.[Cl-]"
readout = "selectivity ratio"
number = 1410


Would you kindly look at the next entry?
selectivity ratio reading for C[n+]1c2ccccc2c(Nc2ccc(N3CCCCC3)cc2)c2[nH]c3ccccc3c21.[Cl-] : 11

====

Test system: Nucleic Acid
Assay: Binding affinity to s(GATCCTAGGATC)2-DNA by fluorescence spectroscopy
Type: nucleic-acid assay
readout: Ka (×10⁶ /M)
Write it as a number; the unit ×10⁶ /M goes unstated.

Recorded Ka, per entry:
[[record]]
compound = "CCN(CC)CCCC(C)Nc1c2ccccc2[n+](C)c2c1[nH]c1ccccc12.[Cl-] (stereo not given)"
measuredtarget = "Nucleic Acid"
readout = "Ka"
number = 4.3

[[record]]
compound = "C[n+]1c2ccccc2c(NCCCN2CCCCC2)c2[nH]c3ccccc3c21.[Cl-]"
measuredtarget = "Nucleic Acid"
readout = "Ka"
number = 5.3


Ka reading for CC(C)NCCCNc1c2ccccc2[n+](C)c2c1[nH]c1ccccc12.[Cl-] : 5

Ka reading for CCN(CC)CCCCNc1c2ccccc2[n+](C)c2c1[nH]c1ccccc12.[Cl-] : 9

Ka reading for CC(CN(C)C)Nc1c2ccccc2[n+](C)c2c1[nH]c1ccccc12.[Cl-] (stereo not given) : 1.9
